- method-summary: Cytotoxicity against HPC cells
- Assay type: cell-based
- experimental-context: human
Please respond with 1 when measured CC50 is strictly beneath 200 µM, and with -1 in all other cases.

smiles-str	label-class
COc1cc(/C=C2\CCCC/C(=C\c3cc(OC)c(OC)c(OC)c3)C2=O)cc(OC)c1OC	-1
COc1cc(/C=C2\CCC/C(=C\c3cc(OC)c(OC)c(OC)c3)C2=O)cc(OC)c1OC	-1
COc1cc(/C=C2\CC/C(=C\c3cc(OC)c(OC)c(OC)c3)C2=O)cc(OC)c1OC	-1
COc1cc(/C=C2\CCCCCC2=O)cc(OC)c1OC	-1
COc1ccc(/C=C/C(=O)/C=C/c2ccc([N+](=O)[O-])cc2)cc1	1
COc1cc(/C=C/C(=O)/C=C/c2ccc([N+](=O)[O-])cc2)cc(OC)c1OC	1
COc1cc(/C=C/C(C)=O)cc(OC)c1OC	1
N[C@@H](Cc1ccc(N(CCCl)CCCl)cc1)C(=O)O	-1

====

CC50 by entry:
- method-summary: Cytotoxicity against HGF cells
- Format: cell-based
- experimental-context: human

smiles-str	op	CC50 / µM
COc1cc(/C=C/C(=O)/C=C/c2ccc([N+](=O)[O-])cc2)cc(OC)c1OC	=	16
N[C@@H](Cc1ccc(N(CCCl)CCCl)cc1)C(=O)O	>	200
COc1cc(/C=C2\CC/C(=C\c3cc(OC)c(OC)c(OC)c3)C2=O)cc(OC)c1OC	=	240
COc1cc(/C=C2\CCCC/C(=C\c3cc(OC)c(OC)c(OC)c3)C2=O)cc(OC)c1OC	=	229

====

CC50 by entry:
- method-summary: Cytotoxicity against HPLF cells
- Type: cell-based
- experimental-context: human
reported-endpoint: CC50 (µM)

smiles-str	reported-endpoint	op	value-measured
COc1cc(/C=C2\CC/C(=C\c3cc(OC)c(OC)c(OC)c3)C2=O)cc(OC)c1OC	CC50	=	281
COc1cc(/C=C2\CCCC/C(=C\c3cc(OC)c(OC)c(OC)c3)C2=O)cc(OC)c1OC	CC50	=	250
COc1cc(/C=C2\CCC/C(=C\c3cc(OC)c(OC)c(OC)c3)C2=O)cc(OC)c1OC	CC50	=	388
N[C@@H](Cc1ccc(N(CCCl)CCCl)cc1)C(=O)O	CC50	>	200
COc1cc(/C=C/C(=O)/C=C/c2ccc([N+](=O)[O-])cc2)cc(OC)c1OC	CC50	=	106
COc1cc(/C=C2\CCCC/C(=C\c3ccc([N+](=O)[O-])cc3)C2=O)cc(OC)c1OC	CC50	=	370
COc1ccc(/C=C/C(=O)/C=C/c2ccc([N+](=O)[O-])cc2)cc1	CC50	=	193
COc1cc(/C=C2\CCCCCC2=O)cc(OC)c1OC	CC50	=	291
COc1cc(/C=C/C(C)=O)cc(OC)c1OC	CC50	=	263

====

- method-summary: Cytotoxicity against HGF cells
- Type: cell-based
- experimental-context: human
Please respond with True when measured CC50 is strictly beneath 200 µM, and with False in all other cases.

smiles-str	label-class
COc1cc(/C=C/C(C)=O)cc(OC)c1OC	True
COc1cc(/C=C2\CCC/C(=C\c3cc(OC)c(OC)c(OC)c3)C2=O)cc(OC)c1OC	False
COc1cc(/C=C2\CCCC/C(=C\c3ccc([N+](=O)[O-])cc3)C2=O)cc(OC)c1OC	False
COc1ccc(/C=C/C(=O)/C=C/c2ccc([N+](=O)[O-])cc2)cc1	True
COc1cc(/C=C2\CCCCCC2=O)cc(OC)c1OC	False

====

- System: HL-60
- method-summary: Cytotoxicity against human HL60 cells
- Format: functional
CC50 by entry:

smiles-str	unit-tag	CC50
COc1cc(/C=C2\CCCCCC2=O)cc(OC)c1OC	µM	31
COc1cc(/C=C2\CCCC/C(=C\c3ccc([N+](=O)[O-])cc3)C2=O)cc(OC)c1OC	µM	266
COc1cc(/C=C2\CCCC/C(=C\c3cc(OC)c(OC)c(OC)c3)C2=O)cc(OC)c1OC	µM	46
COc1cc(/C=C2\CCC/C(=C\c3cc(OC)c(OC)c(OC)c3)C2=O)cc(OC)c1OC	µM	46
COc1ccc(/C=C/C(=O)/C=C/c2ccc([N+](=O)[O-])cc2)cc1	µM	25
N[C@@H](Cc1ccc(N(CCCl)CCCl)cc1)C(=O)O	µM	6
COc1cc(/C=C2\CC/C(=C\c3cc(OC)c(OC)c(OC)c3)C2=O)cc(OC)c1OC	µM	21
COc1cc(/C=C/C(C)=O)cc(OC)c1OC	µM	47
COc1cc(/C=C/C(=O)/C=C/c2ccc([N+](=O)[O-])cc2)cc(OC)c1OC	µM	6.4

Recorded values, source ChEMBL document CHEMBL1147931.
